# Test system: L1210 leukemia ip in BDF1 mice, survival T/C
# Assay remarks: NCI In Vivo Anticancer Drug Screen. Data for tumor model L1210 Leukemia (intraperitoneal) in B6D2F1 (BDF1) mice
# Condition context: endpoint: mean survival time; dose: 100.0 mg/kg/injection; schedule: Q01DX001 (ip); vehicle: saline; higher = longer survival
Inconclusive results and toxic doses are left out.
Listing: T/C of selected compounds

Some entries whose results are on file:
# returns recorded T/C (system: L1210 leukemia ip in BDF1 mice, survival T/C) for `COB(OC)OC` 95 % of control

Record `O=C1Nc2cccc3cc(O)cc1c23` : what is its T/C with L1210 leukemia ip in BDF1 mice, survival T/C? 105 % of control

---
Any idea what T/C came out for `O=C(Nc1cccc2cnccc12)c1ccc(C(=O)Nc2cccc3cnccc23)cc1` on L1210 leukemia ip in BDF1 mice, survival T/C? 98 % of control

Return T/C measured with L1210 leukemia ip in BDF1 mice, survival T/C given this compound: COC(=O)C1CC2(Br)C(Br)=C(Br)C1(Br)C2(Br)Br (centres undefined) 88 % of control

Give L1210 leukemia ip in BDF1 mice, survival T/C T/C for CC(N(N=O)c1ccccc1)S(=O)(=O)O (centres undefined) 104 % of control

Give T/C (L1210 leukemia ip in BDF1 mice, survival T/C) of the following compound: `CSc1ccc(C(=O)Nc2c(N)ncnc2N)cc1` 88 % of control

Request: T/C, test system L1210 leukemia ip in BDF1 mice, survival T/C, entry `COC(=O)c1ccc(N(C)CCC(=O)CBr)cc1` 95 % of control

Form entry - test system: L1210 leukemia ip in BDF1 mice, survival T/C; read-out: T/C; compound: `CC1(C)N=C(N)N=C(N)N1c1cccc(OCCCOc2ccc(NC(=O)CBr)cc2)c1` 110 % of control

So what T/C did Cc1ccc(S(=O)(=O)C2CCCC2Cl)cc1 (centres undefined) get with L1210 leukemia ip in BDF1 mice, survival T/C? 107 % of control
